- experimental-system: human TREM2 (Homo sapiens, UniProt Q9NZC2)
- Construct: expressed in transfected cells; host or cells: HEK293T
- Sequence (Q9NZC2 19-230): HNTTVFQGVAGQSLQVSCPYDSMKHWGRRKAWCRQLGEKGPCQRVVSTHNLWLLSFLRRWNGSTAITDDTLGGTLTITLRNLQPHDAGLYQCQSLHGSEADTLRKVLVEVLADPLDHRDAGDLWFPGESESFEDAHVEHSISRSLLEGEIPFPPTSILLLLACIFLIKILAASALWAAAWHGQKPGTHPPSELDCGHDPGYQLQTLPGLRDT
- Sequence (O43914 22-113 partner): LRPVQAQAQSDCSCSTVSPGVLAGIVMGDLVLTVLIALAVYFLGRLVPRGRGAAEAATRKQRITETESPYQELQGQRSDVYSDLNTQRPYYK
- test-description: TREM2 agonist potency by cellular phosphorylation of Syk (AlphaLisa) in HEK293T-hTREM2 cells
- Assay type: cell-based
- reported-conditions: HEK293 cells expressing human TREM2 and DAP12, Table D
pEC50: −log10 of the molar value.
pEC50: recorded values

compound: [2H]C1([2H])C[C@H](c2nc(-c3ccc(Cl)cc3F)c3nc(C)c(C)nc3n2)C[C@]([2H])(c2cnn(C3CC3)c2)O1
pEC50: > 7.30
//
compound: [2H]C1([2H])C[C@@H](c2nc(-c3ccc(F)cc3F)c3nc(C)c(C)nc3n2)C[C@@H](c2cnn(C3CC3)c2)O1 (single isomer, unassigned)
pEC50: > 7.30
//
compound: Cc1cc2c(-c3ccc(F)cc3F)cc([C@H]3CCO[C@@H](c4cnn(C5CC5)c4)C3)nc2nc1C
pEC50: > 7.30

---

- experimental-system: human TREM2 (Homo sapiens, UniProt Q9NZC2)
- Construct: expressed in transfected cells; host or cells: HEK293T
- test-description: TREM2 agonist potency by cellular phosphorylation of Syk (AlphaLisa) in HEK293T-hTREM2 cells
- Format: cell-based
- reported-conditions: HEK293 cells expressing human TREM2 and DAP12, Table D

smiles: CC(=O)OCc1nc2c(-c3ccc(F)cc3F)nc([C@@H]3CCO[C@@H](c4cnn(C5CC5)c4)C3)cc2nc1C
experimental-system: human TREM2 (Homo sapiens, UniProt Q9NZC2)
EC50: 3000 to 100000 nM
--
smiles: Cc1nc2nc(-c3ccc(Cl)cc3F)cc([C@H]3CCO[C@@H](c4cnn(C5CC5)c4)C3)c2nc1C
experimental-system: human TREM2 (Homo sapiens, UniProt Q9NZC2)
EC50: < 50 nM
--
smiles: [2H]C([2H])([2H])n1cc([C@H]2C[C@@H](c3nc(-c4ccc(F)cc4F)c4nc(C)c(C)nc4n3)CCO2)cn1
experimental-system: human TREM2 (Homo sapiens, UniProt Q9NZC2)
EC50: 50 to 500 nM
--
smiles: Cc1nc2nc(N3C[C@@H](C)O[C@@H](c4cnn(C5CC5)c4)C3)nc(-c3ccnn3C)c2nc1C
experimental-system: human TREM2 (Homo sapiens, UniProt Q9NZC2)
EC50: 50 to 500 nM
--
smiles: [2H][C@]1(c2cnn(C3CC3)c2)C[C@@H](c2nc(-c3ccc(F)cc3F)c3nc(C)c(C)nc3n2)CCO1
experimental-system: human TREM2 (Homo sapiens, UniProt Q9NZC2)
EC50: < 50 nM
--
smiles: Cc1nc2nc(N3CCO[C@H](c4cc[nH]c(=O)c4)C3)nc(-c3ccc(C(F)(F)F)nc3)c2nc1C
experimental-system: human TREM2 (Homo sapiens, UniProt Q9NZC2)
EC50: 50 to 500 nM
--
smiles: Cc1nc2cc([C@@H]3CCO[C@@H](c4cnn(C5CC5)c4)C3)cc(-c3ccc(Cl)cc3F)c2nc1C
experimental-system: human TREM2 (Homo sapiens, UniProt Q9NZC2)
EC50: 3000 to 100000 nM

---

- experimental-system: human TREM2 (Homo sapiens, UniProt Q9NZC2)
- Construct: expressed in transfected cells; host or cells: HEK293T
- test-description: TREM2 agonist potency by cellular phosphorylation of Syk (AlphaLisa) in HEK293T-hTREM2 cells
- Type: cell-based
- reported-conditions: HEK293 cells expressing human TREM2 and DAP12, Table D-2
pEC50: −log10 of the molar value.
Each entry below lists one item and its recorded pEC50 value.

compound: Cc1nc2nc(N3C[C@@H](C(F)F)O[C@@H](c4cnn(C5CC5)c4)C3)nc(-c3ccc(C(F)(F)F)cc3F)c2nc1C (stereo in doubt)
experimental-system: human TREM2 (Homo sapiens, UniProt Q9NZC2)
pEC50: > 7.30
--
compound: Cc1nc2nc(N3C[C@@H](C4CC4)O[C@@H](c4cnn(C(F)F)c4)C3)nc(-c3ccc(F)cc3F)c2nc1C (stereo in doubt)
experimental-system: human TREM2 (Homo sapiens, UniProt Q9NZC2)
pEC50: 6.30 to 7.30
--
compound: CCCc1ccc(-c2nc([C@H]3CCO[C@@H](c4cnn(C5CC5)c4)C3)nc3nc(C)c(C)nc23)c(F)c1
experimental-system: human TREM2 (Homo sapiens, UniProt Q9NZC2)
pEC50: 6.30 to 7.30
--
compound: Cc1nc2nc(-c3ccc(Cl)cc3F)cc(N3C[C@@H](C)O[C@@H](c4cnn(C5CC5)c4)C3)c2nc1C
experimental-system: human TREM2 (Homo sapiens, UniProt Q9NZC2)
pEC50: 5.52 to 6.30
--
compound: Cc1nc2nc(N3C[C@@H](C(F)F)O[C@@H](c4cnn(C5CC5)c4)C3)nc(-c3ccc(F)cc3F)c2nc1C (single isomer, unassigned)
experimental-system: human TREM2 (Homo sapiens, UniProt Q9NZC2)
pEC50: > 7.30
--
compound: Cc1nc2nc(N3C[C@@H](C)O[C@@H](c4cnn(C)c4)C3)nc(-c3ccc(F)cc3F)c2nc1C
experimental-system: human TREM2 (Homo sapiens, UniProt Q9NZC2)
pEC50: > 7.30

---

- experimental-system: human TREM2 (Homo sapiens, UniProt Q9NZC2)
- Construct: expressed in transfected cells; host or cells: HEK293T
- test-description: TREM2 agonist potency by cellular phosphorylation of Syk (AlphaLisa) in HEK293T-hTREM2 cells
- Assay type: cell-based
- reported-conditions: HEK293 cells expressing human TREM2 and DAP12, Table D
pEC50: −log10 of the molar value.
Listed here are compounds together with their documented pEC50.

compound: Cc1nc2nc(C3C[C@@H](C)O[C@@H](c4cn[nH]c4)C3)nc(-c3ccc(F)cc3F)c2nc1C (stereo partly shown)
pEC50: 6.30 to 7.30
--
compound: Cc1cc([C@@H]2C[C@H](c3nc(-c4ccc(Cl)c(F)c4F)c4ncc(C)nc4n3)CCO2)ccn1
pEC50: 5.52 to 6.30
--
compound: Fc1ccc(-c2nc([C@H]3CCO[C@@H](c4cnn(C5CC5)c4)C3)cc3nc4c(nc23)COC4)c(F)c1
pEC50: 6.30 to 7.30
--
compound: [2H]C1([2H])C[C@@H](c2nc(-c3ccc(F)cc3F)c3nc(C)c(C)nc3n2)C[C@@]([2H])(c2cnn(C3CC3)c2)O1 (single isomer, unassigned)
pEC50: 4.00 to 5.52
--
compound: Cc1cnc2c(-c3ccc(Cl)cc3F)nc(N3C[C@@H](C)O[C@@H](c4cnn(C5CC5)c4)C3)nc2n1 (racemic) [Example 70]
pEC50: > 7.30
--
compound: Cc1cc([C@@H]2C[C@H](c3cc4nc(C)c(C)cc4c(-c4ccc(F)cc4F)n3)CCO2)ccn1
pEC50: 5.52 to 6.30
--
compound: Cc1nc2cc([C@H]3CCO[C@@H](c4cnn(C5CC5)c4)C3)cc(-c3ccc(Cl)cc3F)c2nc1C
pEC50: 6.30 to 7.30

---

Entries and their EC50 values follow.
- experimental-system: human TREM2 (Homo sapiens, UniProt Q9NZC2)
- Construct: expressed in transfected cells; host or cells: HEK293T
- test-description: TREM2 agonist potency by cellular phosphorylation of Syk (AlphaLisa) in HEK293T-hTREM2 cells
- Type: cell-based
- reported-conditions: HEK293 cells expressing human TREM2 and DAP12, Table D

molecule: [2H]C([2H])([2H])c1nc2nc([C@H]3CCO[C@@H](c4cnn(C5CC5)c4)C3)nc(-c3ccc(Cl)cc3F)c2nc1C([2H])([2H])[2H] [Example 181]
EC50: < 50 nM
//
molecule: COc1cccc([C@H]2C[C@@H](c3nc(-c4ccc(F)cc4F)c4nc(C)c(C)nc4n3)CCO2)n1 [Example 165]
EC50: 50 to 500 nM
//
molecule: Cc1cc([C@H]2C[C@@H](c3cc(-c4ccc(Cl)cc4F)c4cc(C)c(C)nc4n3)CCO2)ccn1 [Example 184]
EC50: < 50 nM
//
molecule: Cc1cnc2c(C34CC(C(F)(F)F)(C3)C4)nc([C@H]3C[C@@H](C)O[C@@H](c4cnn(C5CC5)c4)C3)nc2n1 [Example 140]
EC50: 500 to 3000 nM
//
molecule: Cc1nc2nc(N3C[C@@H](C)O[C@@H](c4cnn(C5CC5)c4)C3)nc(-c3ccnc(C(F)(F)F)c3)c2nc1C [Example 178]
EC50: < 50 nM
//
molecule: Cc1cc([C@H]2C[C@@H](c3nc(-c4cc(F)c(Cl)c(F)c4)c4nc(C)c(C)nc4n3)CCO2)ccn1 (racemic) [Example 84]
EC50: < 50 nM
//
molecule: Cc1nc2nc(N3CCOC(c4cc[nH]c(=O)c4)C3)nc(-c3ccc(C(F)(F)F)nc3)c2nc1C (centres unmarked) [Example 194]
EC50: < 50 nM
//
molecule: Cc1nc2nc([C@H]3CCO[C@@H](c4cnn(C5CC(F)C5)c4)C3)nc(C34CC(C(F)(F)F)(C3)C4)c2nc1C (stereo in doubt) [Example 135]
EC50: 50 to 500 nM
//
molecule: Cc1cnc2c(-c3ccc(Cl)cc3F)nc(N3C[C@@H](C)O[C@@H](c4cnn(C5CC5)c4)C3)nc2n1 [Example 117]
EC50: < 50 nM
//
molecule: Cc1nc2nc([C@H]3CCO[C@@H](c4cnn(C5CC5)c4)C3)nc(C34CC(C(C)C)(C3)C4)c2nc1C [Example 127]
EC50: < 50 nM
//
molecule: Cc1cc([C@H]2C[C@@H](c3nc(-c4ccc(Cl)c(F)c4F)c4ncc(C)nc4n3)CCO2)ccn1 [Example 130]
EC50: < 50 nM
//
molecule: Cc1nc2nc([C@H]3CCO[C@@H](c4ccc(=O)n(C)c4)C3)nc(-c3ccc(F)cc3F)c2nc1C [Example 201]
EC50: 500 to 3000 nM
//
molecule: Cc1cnc2c(C34CC(C)(C3)C4)nc([C@H]3C[C@@H](C)O[C@@H](c4cnn(C5CC5)c4)C3)nc2n1 [Example 151]
EC50: 500 to 3000 nM
//
molecule: Cc1nc2nc([C@H]3C[C@@H](C)O[C@@H](c4cnn(C5CC5)c4)C3)nc(-c3cc(F)c(F)cc3F)c2nc1C [Example 157]
EC50: < 50 nM
